Hello, the source for this data is patent US9890117B2, in case you need it.

- method.description: Microsomal intrinsic clearance, mouse
- condition.details: mouse, microsomes, NADPH-dependent CLint
outcome.measure: microsomal CLint at 1 μM (µL/min/mg)
Respond numerically; units are µL/min/mg and should not be typed.

Which microsomal CLint at 1 μM value belongs to C[S+]([O-])c1ccc(NC(=O)c2cccc(SCc3ccc(Cl)cc3)c2)cc1 (stereo not shown) ?
445

====

I'd appreciate it if you could supply Mean remaining parent with NADPH (%) values for the items below.
- method.description: Microsomal stability screen, human
- condition.details: 1 μM
Just the number please, in %, no unit attached.

Fill blank: measured Mean remaining parent with NADPH (%) of the compound CC(=O)c1ccc(N(C)S(=O)(=O)c2cccc(C(=O)Nc3ccc(Cl)cn3)c2)cc1 [Compound 103] is ____.
12

Suppose we examine the compound CC(=O)c1ccc(N(C)S(=O)(=O)c2cccc(C(=O)Nc3ccc(Cl)cc3)c2)cc1 [Compound 102] ; what Mean remaining parent with NADPH (%) value has been reported?
12

I'd like to know its Mean remaining parent with NADPH (%). The compound in question is COc1ccc(N(C)S(=O)(=O)c2cccc(C(=O)Nc3ccc(C#N)cc3)c2)cc1 [Compound 90]
2

====

outcome.measure: melting point

Look up melting point: N#Cc1ccc(COc2cc(O)cc(C(=O)Nc3ccc(C#N)cc3)c2)cc1 [Compound 216w]
199 to 201 °C

Fill in the blank: the reported melting point of CN(c1ccc(Br)cc1)S(=O)(=O)c1cccc(C(=O)Nc2ccc(Cl)cc2F)c1 [Compound 203q] is ____.
117 to 118 °C

# lookup: melting point of CN(c1ccc(S(C)(=O)=O)cc1)S(=O)(=O)c1cc(C(=O)Nc2ccc(C#N)cc2)ccn1 [Compound 203As]
224 to 226 °C

What value of melting point has been reported for the following compound? CN(C(=O)c1cccc(S(=O)(=O)N(C)c2ccc(S(C)(=O)=O)cc2)c1)c1ccc(C#N)cc1F [Compound 203Ak]
156 to 157 °C

Fill in: melting point of CCCN(CCC)S(=O)(=O)c1cccc(C(=O)Nc2cccc([N+](=O)[O-])c2)c1 [Compound 203h] is ___
126 to 128 °C

Dear colleague, I am looking for the recorded melting point of the following compound: N#Cc1ccc(NC(=O)c2cccc(NCc3ccc(F)cc3)c2)cc1 [Compound 221a]
173 to 174 °C

Would you kindly share the measured melting point for Cc1cc(Cl)ccc1NC(=O)c1cccc(S(=O)(=O)N(C)c2ccc(Br)cc2)c1 [Compound 203n] ?
163 to 164 °C

Any idea what its melting point is? The compound is CCCN(CCC)S(=O)(=O)c1cccc(C(=O)Nc2ccc(Br)cc2C)c1 [Compound 203c]
135 to 136 °C

Quick one: melting point for N#Cc1ccc(NC(=O)c2cccc(OCc3cccc(F)c3)c2)cc1 [Compound 216Ad] ?
142 to 143 °C

I have this compound here, CN(C(=O)c1cccc(S(=O)(=O)N(C)c2ccc(Cl)cc2)c1)c1ccc(C#N)cc1F [Compound 203Ac] , and I need its recorded melting point.
169 to 170 °C

Which melting point value belongs to N#Cc1ccc(NC(=O)c2cccc(OCc3ccc(Cl)cn3)c2)cc1 [Compound 216n] ?
168 to 169 °C

Given the compound C[C@@H](Oc1cncc(C(=O)Nc2ccc(C#N)cc2)c1)c1ccc(F)cc1 [Compound 216r] , what is its reported melting point?
151 to 152 °C

Fill in the blank: the reported melting point of CCN(c1ccc(O)cc1)S(=O)(=O)c1cccc(C(=O)Nc2ccc(C#N)cc2)c1 [Compound 203Ay] is ____.
102 to 104 °C

Look up melting point for this compound: CN(c1ccc(S(C)(=O)=O)cc1)S(=O)(=O)c1cccc(C(=O)Nc2ccc(Cl)cc2F)c1 [Compound 203Ae]
182 to 183 °C

Using the record for CC(=O)c1ccc(N(C2CC2)S(=O)(=O)c2cccc(C(=O)Nc3ccc(C#N)cc3)c2)cc1 [Compound 203Aw] , report its melting point.
185 to 186 °C

Recorded melting point of N#Cc1ccc(NC(=O)c2cccc(SCc3ccc(F)cc3)c2)cc1 [Compound 211g] , please.
148 to 150 °C

====

outcome.measure: melting point

Which melting point value is on record for CSc1ccc(COc2cccc(C(=O)Nc3ccc(C#N)cn3)c2)cc1 [Compound 216b] ?
146 to 147 °C

Would you kindly share the measured melting point for CN(c1ccc(S(C)(=O)=O)cc1)S(=O)(=O)c1cccc(NC(=O)c2ccc([S+](C)[O-])cc2)c1 (centres unmarked) [Compound 207c] ?
184 to 186 °C

Fill blank: measured melting point of the compound CCCN(CCC)S(=O)(=O)c1cccc(C(=O)Nc2cccc(Br)c2)c1 [Compound 203f] is ____.
105 to 107 °C

GET /values?readout=melting point&item= CN(c1ccc(Cl)cc1)S(=O)(=O)c1cccc(C(=O)Nc2ccc(Br)cc2F)c1 [Compound 203w]
126 to 127 °C

Need melting point, item COc1ccc(CSc2cc(C(=O)Nc3ccc(C#N)cc3)ccn2)cc1 [Compound 211f]
201 to 203 °C

Find the recorded melting point belonging to COc1ccc(COc2cccc(C(=O)Nc3ccc([S+](C)[O-])cc3)c2)cc1 (centres unmarked) [Compound 216h] and report it.
135 to 136 °C

Value lookup for melting point; key = N#Cc1ccc(NC(=O)c2cccc(OCc3ccc(F)c(F)c3)c2)cc1 [Compound 216z]
173 to 174 °C

Which melting point value is on record for C[S+]([O-])c1ccc(COc2cccc(C(=O)Nc3ccc(C#N)cc3)c2)cc1 (centres unmarked) [Compound 216e] ?
174 to 175 °C

Entry under review: N#Cc1ccc(COc2cccc(C(=O)Nc3ccc(C#N)cc3)c2)cc1 [Compound 216q] . Reported melting point?
205 to 207 °C

Return reported melting point; argument: CC(=O)c1ccc(C(C)Oc2cncc(C(=O)Nc3ccc(C#N)cc3)c2)cc1 (centres unmarked) [Compound 216Ab]
181 to 183 °C

What value of measured melting point is listed for N#Cc1ccc(NC(=O)c2cccc(OCc3cccc(F)c3F)c2)cc1 [Compound 216Aa] ?
149 to 150 °C

Return reported melting point; argument: CN(C(=O)c1cccc(S(=O)(=O)N(C)c2ccc([S+](C)[O-])cc2)c1)c1ccc(Cl)cc1F (centres unmarked) [Compound 203Ag]
104 to 106 °C

Item COc1ccc(CSc2cccc(C(=O)Nc3ccc(C#N)cc3)c2)cc1 [Compound 211c] has what recorded melting point?
167 to 169 °C

Bench note: what melting point did N#Cc1ccc(COc2cncc(C(=O)Nc3ccc(C#N)cc3)c2)cc1 [Compound 216t] show?
266 to 268 °C (dec.)

// query melting point value for entry CCN(c1ccc(OC)cc1)S(=O)(=O)c1cccc(C(=O)Nc2ccc(C#N)cc2)c1 [Compound 203Ba]
168 to 169 °C

Can you share its melting point? I mean this compound: Cc1cc(Br)ccc1NC(=O)c1cccc(S(=O)(=O)N2CCCCCC2)c1 [Compound 203b]
177 to 179 °C

What melting point value was documented for this compound, Cc1cc(F)ccc1NC(=O)c1cccc(S(=O)(=O)N(C)c2ccc(Br)cc2)c1 [Compound 203o] ?
163 to 165 °C

====

- target.or.system: SIRT2 (Homo sapiens, UniProt Q8IXJ6)
- Construct: recombinant active enzymes SIRT1, SIRT2, and the catalytically active fragment of SIRT3
- Sequence (Q8IXJ6 whole entry, the tested form may be a part): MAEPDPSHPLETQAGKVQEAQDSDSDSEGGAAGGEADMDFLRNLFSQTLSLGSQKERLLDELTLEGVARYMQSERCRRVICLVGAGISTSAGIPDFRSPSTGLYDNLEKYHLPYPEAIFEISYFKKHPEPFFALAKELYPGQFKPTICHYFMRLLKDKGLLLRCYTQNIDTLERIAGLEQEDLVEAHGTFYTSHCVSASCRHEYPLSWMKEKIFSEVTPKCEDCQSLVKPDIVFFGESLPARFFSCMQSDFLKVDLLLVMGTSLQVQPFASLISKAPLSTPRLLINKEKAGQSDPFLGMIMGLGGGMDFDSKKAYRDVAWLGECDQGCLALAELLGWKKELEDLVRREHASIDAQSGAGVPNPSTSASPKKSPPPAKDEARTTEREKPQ
- method.description: Fluor-de-Lys biochemical sirtuin deacetylation assay, SIRT2
- condition.details: 10 μM
Where a name gives a salt, the structure may show the parent alone.
outcome.measure: inhibition at 10 µM
Put down the number, then write its unit next to it.

Request the reported inhibition at 10 µM associated with C[C@@H](Oc1cccc(C(=O)Nc2ccc(C#N)cc2)c1)c1ccc(C#N)cc1 [Compound 216Ag]
92%

Report inhibition at 10 µM for N#Cc1ccc(NC(=O)c2cccc(OCc3cc(F)cc(F)c3)c2)cc1 [Compound 216Ae] please.
57%

Can you look up the measured inhibition at 10 µM of CN(c1ccc(Br)cc1)S(=O)(=O)c1cccc(C(=O)Nc2ccc(F)cc2F)c1 [Compound 203u] for me?
22%

Which inhibition at 10 µM is reported for this molecule? CC(=O)c1ccc(C(C)(C)Oc2cccc(C(=O)Nc3ccc(C#N)cc3)c2)cc1 [Compound 216Ai]
80%

Which measured inhibition at 10 µM value corresponds to Cc1cc(Br)ccc1NC(=O)c1cccc(S(=O)(=O)N(C)c2ccc(Br)cc2)c1 [Compound 203e] ?
0%

# input molecule: N#Cc1ccc(CN(Cc2cncc(C(=O)Nc3ccc(Cl)cc3)c2)C2CC2)cc1 [Compound 225o, hydrochloride] ; wanted: its inhibition at 10 µM
8%

What value of measured inhibition at 10 µM is listed for CS(=O)(=O)c1ccc(CS(=O)(=O)c2cccc(C(=O)Nc3ccc(C#N)cc3)c2)cc1 [Compound 212a] ?
19%

Field request: inhibition at 10 µM | item: N#Cc1cccc(NC(=O)c2cncc(CN(Cc3ccc(F)c(F)c3)C3CC3)c2)c1 [Compound 225w, hydrochloride]
20%
